Reported protein stability index values follow for various variants
B1: CLCN6 (parent)
chain: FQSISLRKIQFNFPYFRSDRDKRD

Variants of: B1
Assay: protein stability index of a GFP-peptide fusion (GPS, HEK-293T) (PSI 1-6); higher = more stable;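 further: lentivirally expressed fusions sorted by FACS into six bins by GFP to DsRed ratio, PSI derived from sequencing read proportions per bin multiplied by bin number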
Details: c terminus: a fixed tail appended

Look over these answered cases.
1. Y15A
3.09
2. F11R
1.51

Now examine the next entry.
variant D24Y , protein stability index observed: 1.58
